# TARGET_ENTITY: TNFα (Homo sapiens (Human))
# Sequence (P01375 77-233): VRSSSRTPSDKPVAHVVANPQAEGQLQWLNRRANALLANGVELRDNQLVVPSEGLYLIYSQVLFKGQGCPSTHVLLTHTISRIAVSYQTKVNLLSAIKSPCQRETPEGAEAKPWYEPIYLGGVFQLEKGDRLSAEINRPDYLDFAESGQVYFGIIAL
# METHOD_SUMMARY: TNF induced HEK-Blue assay
# PARTICULARS: TNFα 0.5 ng/ml; HEK-Blue-CD40L cells, NF-κB-driven secreted alkaline phosphatase reporter; 18 h
Documented IC50 across a set of molecules

# example entries with known answers
MOLECULE	MEASURED_PARAMETER	ENDPOINT_RESULT
COC1CN(C(=O)c2ccc(-c3ccc4nc5c(n4n3)C(c3ccccc3OC(F)F)NCC5O)cc2)C1 (centres unmarked)	IC50	10 to 25 µM
CC(C)(O)c1ncc(-c2ccc3nc4c(n3n2)[C@H](c2ccccc2OC(F)F)OC[C@@H]4O)cn1 (relative stereo)	IC50	10 to 25 µM

Incoming: Value wanted: IC50 (TNFα (Homo sapiens (Human))) of entry CNS(=O)(=O)c1ccc(-c2ccc3nc4c(n3n2)[C@@H](c2ccccc2OC(F)F)NC[C@H]4O)cc1 (racemic)
Outgoing: 1 to 10 µM

Incoming: Value wanted: IC50 (TNFα (Homo sapiens (Human))) of entry CC(C)(O)c1ccc(-c2ccc3nc4c(n3n2)C(c2ccccc2OC(F)F)OCC4)cc1 (centres unmarked)
Outgoing: < 1 µM

Incoming: Value wanted: IC50 (TNFα (Homo sapiens (Human))) of entry COc1cc(F)ccc1[C@@H]1NC[C@@H](O)c2nc3ccc(-c4ccc(C(C)(C)O)cc4)nn3c21 (racemic)
Outgoing: 1 to 10 µM

Incoming: Value wanted: IC50 (TNFα (Homo sapiens (Human))) of entry CC(C)(O)c1ccc(-c2ccc3nc4c(n3n2)[C@H](c2ccccc2OC(F)F)NC[C@@H]4O)cc1 (racemic) [Example 4]
Outgoing: < 1 µM

Incoming: Value wanted: IC50 (TNFα (Homo sapiens (Human))) of entry CC(C)COc1ccc(-c2ccc3nc4c(n3n2)[C@@H](c2ccccc2OC(F)F)NC[C@H]4O)cc1 (racemic)
Outgoing: 1 to 10 µM

Incoming: Value wanted: IC50 (TNFα (Homo sapiens (Human))) of entry O[C@@H]1CN[C@H](c2ccccc2OC(F)F)c2c1nc1ccc(-c3ccc(C4(O)CC4)cc3)nn21 (racemic)
Outgoing: 1 to 10 µM

Incoming: Value wanted: IC50 (TNFα (Homo sapiens (Human))) of entry CC(C)(O)c1ncc(-c2ccc3nc4c(n3n2)[C@@H](c2ccccc2OC(F)F)NC[C@H]4F)cn1 (racemic)
Outgoing: 1 to 10 µM

Incoming: Value wanted: IC50 (TNFα (Homo sapiens (Human))) of entry NS(=O)(=O)c1ccc(-c2ccc3nc4c(n3n2)[C@@H](c2ccccc2OC(F)F)NC[C@H]4O)cc1 (racemic)
Outgoing: 1 to 10 µM

Incoming: Value wanted: IC50 (TNFα (Homo sapiens (Human))) of entry CC(C)(O)c1ncc(-c2ccc3nc4c(n3n2)C(c2ccccc2OC(F)F)NCC4)cn1 (racemic)
Outgoing: 1 to 10 µM

Incoming: Value wanted: IC50 (TNFα (Homo sapiens (Human))) of entry COc1ccc(Cl)cc1[C@@H]1NC[C@@H](O)c2nc3ccc(-c4ccc(C(C)(C)O)cc4)nn3c21 (racemic)
Outgoing: 1 to 10 µM

Incoming: Value wanted: IC50 (TNFα (Homo sapiens (Human))) of entry CC(C)(O)c1ccc(-c2ccc3nc4c(n3n2)[C@H](c2ccccc2OC(F)F)NC[C@H]4O)cc1 [Example 5]
Outgoing: 1 to 10 µM

Incoming: Value wanted: IC50 (TNFα (Homo sapiens (Human))) of entry Cn1cc(-c2ccc3nc4c(n3n2)C(c2ccccc2OC(F)F)OCC4)cn1 (centres unmarked)
Outgoing: 1 to 10 µM
